molecular target: T1, human TSLP recombinant protein (human, UniProt Q969D9 29-159, biotinylated in the blocking and cell-binding assays (sites not given)); test: ELISA on coated human TSLP;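 note: binding detected by TMB colour development for 10 min at 37 °C, then absorbance measured at 450 nm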
T1 construct: also called biotinylated human TSLP protein
In this section we review reported EC50 values for a set of binders.
Express it in nM; write the number only.

Ab8 (antibody, V domains shown, Humanized; also called h39G5VHv8/h39G5VKv1) VH: EVQLVQSGAEVKKPGESLKISCKASGYTFTDYWMHWVRQMPGKGLEWMGIIDPSDSDTSLNQSFQGHVTLSVDKSSTTAYLQWSSLKASDTAMYYCARSLDGYYDYWGQGTLVTVSS VL: DIQMTQSPSSLSASVGDRVTITCRASENIYSYLAWYQQKPGKAPKLLIYNARTLPEGVPSRFSGSGSGTDFTLTISSLQPEDFATYYCQHHYTTPWTFGQGTKVEIK; 0.4
Ab23 (antibody, V domains shown, Humanized; also called h39G5VHv2/h71G4VKv1; h39G5VHv2/h71G4VKv1 hIgG1) VH: QVQLVQSGAEVKKPGSSVKVSCKASGYSFISYWIHWVRQAPGQGLEWMGIIDPSDSDTSLNQKFQGRVTITADESTSTAYMELSSLRSEDTAVYYCARSLDGYYDYWGQGTLVTVSS VL: DIQMTQSPSSLSASVGDRVTITCRTSENIYSYLAWYQQKPGKAPKLLIYFAKTLTDGVPSRFSGSGSGTDFTLTISSLQPEDFATYYCQHHYGTPWTFGQGTKVEIK; 0.24

Attention now turns to another entry.
Enquiry: What does the record list as EC50 for Ab3 (antibody, V domains shown, Humanized; also called h39G5VHv3/h39G5VKv1) VH: EVQLVQSGAEVKKPGESLRISCKASGYSFISYWIHWVRQMPGKGLEWMGIIDPSDSDTSLNQSFQGHVTLSVDKSSTTAYLQWSSLKASDTAMYYCARSLDGYYDYWGQGTLVTVSS VL: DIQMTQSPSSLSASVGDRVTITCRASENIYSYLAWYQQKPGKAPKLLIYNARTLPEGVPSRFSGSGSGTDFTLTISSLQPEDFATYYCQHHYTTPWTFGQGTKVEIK ?
Return: 0.22
